# target_under_test: T1, Recombinant human MMR (R&D systems) (human, UniProt P22897 19-1383)
# T1 construct: Antigen of the PE-ELISA and the SPR; also called hMMR; recombinant hMMR
# T1 sequence: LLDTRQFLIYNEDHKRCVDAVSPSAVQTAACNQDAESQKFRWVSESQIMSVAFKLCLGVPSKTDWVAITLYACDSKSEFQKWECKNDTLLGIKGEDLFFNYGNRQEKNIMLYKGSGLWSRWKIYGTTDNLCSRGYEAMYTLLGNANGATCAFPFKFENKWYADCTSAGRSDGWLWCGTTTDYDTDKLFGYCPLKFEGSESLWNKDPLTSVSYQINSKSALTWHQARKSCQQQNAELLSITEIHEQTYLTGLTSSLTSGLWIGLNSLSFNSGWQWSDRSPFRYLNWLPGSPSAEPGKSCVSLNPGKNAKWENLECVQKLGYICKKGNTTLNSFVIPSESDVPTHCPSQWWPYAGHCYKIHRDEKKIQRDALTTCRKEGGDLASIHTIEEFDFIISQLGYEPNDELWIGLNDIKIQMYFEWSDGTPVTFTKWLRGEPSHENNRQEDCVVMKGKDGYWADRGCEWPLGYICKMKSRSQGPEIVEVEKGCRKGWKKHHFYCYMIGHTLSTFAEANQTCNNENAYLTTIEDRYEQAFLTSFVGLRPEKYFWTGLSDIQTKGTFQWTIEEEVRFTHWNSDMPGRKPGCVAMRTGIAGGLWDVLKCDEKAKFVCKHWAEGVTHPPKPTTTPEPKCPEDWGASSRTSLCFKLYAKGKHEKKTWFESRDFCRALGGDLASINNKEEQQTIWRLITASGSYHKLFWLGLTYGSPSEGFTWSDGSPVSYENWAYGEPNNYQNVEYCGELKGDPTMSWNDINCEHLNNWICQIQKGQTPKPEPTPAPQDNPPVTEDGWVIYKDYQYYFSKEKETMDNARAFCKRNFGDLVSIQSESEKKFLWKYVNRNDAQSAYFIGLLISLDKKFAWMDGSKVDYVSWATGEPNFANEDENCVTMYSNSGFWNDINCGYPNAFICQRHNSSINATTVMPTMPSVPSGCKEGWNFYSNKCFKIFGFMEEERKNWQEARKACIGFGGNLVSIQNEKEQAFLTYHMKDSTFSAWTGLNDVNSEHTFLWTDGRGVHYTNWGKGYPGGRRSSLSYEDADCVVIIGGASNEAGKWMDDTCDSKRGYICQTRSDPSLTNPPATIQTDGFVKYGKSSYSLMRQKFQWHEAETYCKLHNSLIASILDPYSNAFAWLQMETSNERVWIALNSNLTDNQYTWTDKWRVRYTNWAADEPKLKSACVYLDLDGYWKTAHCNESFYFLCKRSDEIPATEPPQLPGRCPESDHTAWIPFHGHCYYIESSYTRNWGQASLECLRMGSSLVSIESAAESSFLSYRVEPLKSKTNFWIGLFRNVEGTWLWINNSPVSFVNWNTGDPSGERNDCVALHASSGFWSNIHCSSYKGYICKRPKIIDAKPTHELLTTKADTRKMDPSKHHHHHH
# assay_procedure: SPR, BIAcore T100; human MMR on CM5 chip, sdAb as analyte
quantity_kind: Kd (nM)

| binder | Kd, nM |
| --- | --- |
| NbhmMMRm10.79 (VHH, Produced from pMECS with C-terminal HA and 6xHis tag) VHH: QVQLQESGGGLVQPGGSLKLSCAASGSIFSIKTMGWYRQAPGKQRELVAAVSSGGSTNYADSVKGRFTISRDNAKNAVYLQMNSLKPEDTAVYYCNADGVVAWDQPYDNYWGQGTQVTVSS | 420 |
| NbhmMMRm26.70 (VHH, Produced from pMECS with C-terminal HA and 6xHis tag) VHH: QVQLQESGGGLVQPGGSLRLSCTASGFPFSSAPMSWVRQAPGKELEWVSYIGYTGTITDYANSVKGRFTISRDNAKNRLYLQMNSLKPEDTAVYFCAQGYARLIADSDLVRGQGTQVTVSS | 13 |
| NbhMMRm1.33 (VHH, Produced from pMECS in E. coli WK6 with C-terminal HA and 6xHis tag; also called NbMMRm1.33) VHH: QVQLQESGGGLVQPGGSLRLSCAASGFTLDNYTVAWFRQAPGKEREGVSCISSSGGSTNYADSVKGRFTISRDNSKKSVYLQMNSLKPEDTAIYTCAAERAPPYYSGYYFFDSTCVAASYDYWGQGTQVTVSS | 7.7 |

1 = NbhMMRm15.43 (VHH, Produced from pMECS with C-terminal HA and 6xHis tag) VHH: QVQLQESGGTLVQPGGSLRLSCAASGSTFSINNMGWYRQAPGKQRELVAGITGGNTHYADSVKGRFTISRDNAKNTMYLQMNGLKPEDTAVYYCNANWGAYWGQGTQVTVSS
2 = NbhMMRm10.19 (VHH, Produced from pMECS with C-terminal HA and 6xHis tag) VHH: QVQLQESGGGLVQPGGSLKLSCAASGSIFSIKTMGWYRQAPGKQRELVAAITSGGSTNYADSVKGRFTISRDNAKNTVYLQMNSLKPEDTAVYYCNADGVVAWDQPYDNYWGQGTQVTVSS
**Q:** Hi there! Just curious which has the higher Kd between 1 and 2 . Respond with the label that goes with your answer.
**A:** 1
